Please respond with reported pIC50 for every item in the list.
# System: MCF7
# assay: cells
# study conditions: Homo sapiens, MCF7, 72 h
# Description: Antiproliferative activity against human MCF7 cells assessed as cell growth inhibition after 72 hrs by MTT assay
pIC50: −log10 of the molar value.

## Input Give recorded pIC50. C[C@]12CC[C@H](OC(=O)Cn3cc(COc4ccc(/C=C/C(=O)c5ccccc5)cc4)nn3)CC1=CC[C@@H]1[C@@H]2CC[C@]2(C)C(=O)CC[C@@H]12
## Output < 3.89

## Input Give recorded pIC50. Cc1cc(=O)oc2cc(OCc3cn(CC(=O)O[C@H]4CC[C@@]5(C)C(=CC[C@@H]6[C@@H]5CC[C@]5(C)C(=O)CC[C@@H]65)C4)nn3)ccc12
## Output < 3.89

## Input Give recorded pIC50. C[C@]12CC[C@H](OC(=O)Cn3cc(CN4C(=O)C(=O)c5cccc(Cl)c54)nn3)CC1=CC[C@@H]1[C@@H]2CC[C@]2(C)C(=O)CC[C@@H]12
## Output 4.88

The measured values listed here are drawn from ChEMBL document CHEMBL3804830.
